System: Bacillus subtilis
assayExplanation: Antimicrobial activity against Bacillus subtilis after 16 hrs by serial dilution method
Type: functional
I'd appreciate it if you could supply MIC values for the items below.
Numeric only. Scale: µg/mL

Data request, read-out MIC, for O=C(CSc1nc2ccccc2o1)N/N=C/c1c[nH]nc1-c1cc(Cl)sc1Cl
3.12

Data request, read-out MIC, for Clc1ccc(-c2n[nH]cc2/C=N/Nc2nc3cc(Cl)cc(Cl)c3o2)c(Cl)c1
6.25

Which MIC value is on record for Cc1ccc(-c2nnc(S)n2/N=C/c2c[nH]nc2-c2ccc(Cl)cc2Cl)cn1 ?
1.61

If you can, please state the reported MIC value of Clc1cc(Cl)c2oc(N/N=C/c3c[nH]nc3-c3cc(Cl)sc3Cl)nc2c1 .
6.25

Dear colleague, I am looking for the recorded MIC of the following compound: Sc1nnc(COc2cccc3ccccc23)n1/N=C/c1c[nH]nc1-c1cc(Cl)sc1Cl
1.61

Could you share which MIC value was measured for O=C(CSc1nc2ccccc2o1)N/N=C/c1c[nH]nc1-c1ccc(-c2ccccc2)cc1 ?
12.5

Could you share which MIC value was measured for CSc1ccc(-c2n[nH]cc2/C=N/n2c(S)nnc2-c2ccncc2)cc1 ?
3.12

Requested read-out: MIC. Entry: CSc1ccc(-c2n[nH]cc2/C=N/Nc2nc3cc(Cl)cc(Cl)c3o2)cc1
12.5

Find the recorded MIC belonging to Clc1cc(Cl)c2oc(N/N=C/c3c[nH]nc3-c3ccc(-c4ccccc4)cc3)nc2c1 and report it.
25

Report MIC for CO/N=C(\C(=O)N[C@@H]1C(=O)N2C(C(=O)O)=C(CSc3nc(=O)c(O)nn3C)CS[C@H]12)c1csc(N)n1 [CEFTRIAXONE] please.
1.61

Could you tell me which MIC is on file for O=C(CSc1nc2ccccc2o1)N/N=C/c1c[nH]nc1-c1ccc(Cl)cc1Cl ?
6.25

Given the entry Sc1nnc(COc2cccc3ccccc23)n1/N=C/c1c[nH]nc1-c1ccc(Cl)cc1Cl , report its measured MIC.
3.12

Name the recorded MIC for CSc1ccc(-c2n[nH]cc2/C=N/NC(=O)CSc2nc3ccccc3o2)cc1 .
12.5
